Kindly supply the reported event count (lower = more killing) values for the records listed here.
Experiment: cytotoxicity in LNCaP prostate cancer cells – cell-based, flow cytometry, event count, cytotoxicity control for prostate cell differentiation activator project, dose response (AID 1197)
Settings: LNCaP cell loss, flow cytometry event count, 4 d; at 30 µM (top of the series)
Activity calls are given as the source filed them. The rule behind the calls is not given here.

Answered examples (3):
Compound	Measured Attribute	Test Value
Cn1c(=O)cc(SCC(=O)NCCCN2CCN(c3ccccc3F)CC2)c2ccccc21	event count (lower = more killing)	258% (inactive)
O=C(NCCCN1CCN(c2ccc(F)cc2)CC1)c1cccc(N2CCCC2=O)c1	event count (lower = more killing)	191% (inactive)
CCOc1ccccc1NC(=O)c1nc[nH]c1C(=O)Nc1ccccc1OCC	event count (lower = more killing)	257% (inactive)

I have 8 compounds here; please give me event count (lower = more killing) for each one.
1. CN(C)CCCN1c2ccccc2CCc2ccc(Cl)cc21
2. Cc1cc(N2CCN(C)CC2)nc2ccc(NC(=O)c3ccc(Br)o3)cc12
3. Oc1c(CN2CCCCC2)cc(COCc2ccccc2)c2cccnc12
4. Cc1cc(C)nc(N2CCC(C(=O)Nc3ccc(Oc4ccccc4)cc3)CC2)n1
5. CN(C)c1ccc(CNC2CC(C)(C)NC(C)(C)C2)cc1
6. CCN(CC)CC(=O)Nc1ccc(-c2nc3cc(NC(=O)CN(CC)CC)ccc3o2)cc1
7. Clc1ccc(COC(Cn2ccnc2)c2ccc(Cl)cc2Cl)cc1 (stereo unspecified)
8. COC(=O)c1cc(-c2ccccc2)sc1NC(=O)c1cc(C)on1

Marked response:
["32.2% (inactive)", "422% (inactive)", "137% (inactive)", "170% (inactive)", "284% (inactive)", "98.5% (inactive)", "223% (inactive)", "394% (inactive)"]
